meta.source: PubChem BioAssay (NCI)

- Test system: OVCAR-5 ovarian
- assayDetails: NCI tumour cell line growth inhibition, 48 h
measuredProperty: TGI

>>> df
                                   compound    result
0  CC(C)(C)c1ccc(O)c(C(O)c2ccccn2)c1 (stereo not given)   89.6 µM
1  C/C(=C1\C(=O)Nc2ccccc21)c1cccc(/C(C)=C2/C(=O)Nc3ccccc32)n1  > 100 µM
2          N#C/C=C(/NC(=O)Nc1ccccc1)N1CCCC1  > 100 µM
3  N#CSc1c[nH]c2ccc(/C=C/C(=O)/C=C(O)/C=C/c3ccc4[nH]cc(SC#N)c4c3)cc12   14.8 µM
4  CC(=O)N1N=C(c2ccccc2)NC(=O)C1c1cc(C)c(O)c(C)c1 (stereo not given)  > 100 µM
5  O=C(Nc1ccc(Nc2ccc3c(c2)C(=O)c2ccccc2C3=O)c2c1C(=O)c1ccccc1C2=O)c1ccccc1  > 100 µM

## Input For OVCAR-5 ovarian, give the measured TGI of the entry `CCO/C(O)=c1/s/c(=C2/SC(=S)N(c3ccc(C)cc3)C2=O)n(-c2ccccc2)c1=N`
## Output > 100 µM

## Input For OVCAR-5 ovarian, give the measured TGI of the entry `Cc1cccc(C)c1NC(=S)N/C=C(\C#N)C(N)=O`
## Output > 100 µM

## Input For OVCAR-5 ovarian, give the measured TGI of the entry `C/C(=N/NC(=S)N1CCCCCC1)c1cccc(/C(C)=N\NC(=S)N2CCCCCC2)n1`
## Output 5.26 µM

## Input For OVCAR-5 ovarian, give the measured TGI of the entry `Cc1ccc(N=NC(=Nc2ccc(F)cc2)c2ccc(N(CCC#N)CCC#N)cc2)cc1`
## Output > 100 µM

====

Below: a set of entries, each annotated with reported GI50.
- System: IGROV1 ovarian
- assayDetails: NCI tumour cell line growth inhibition, 48 h

Here is how some molecules turned out for GI50.
>>> print(df.to_string())
                                   molecule  measuredproperty   result
0  Clc1ccc2c(NC3CCC(NC4CCCCC4)CC3)ccnc2c1 (centres undefined)              GI50  6.64 µM
1            CCCCCCCCCCCC1=NC(C)(C)CN1C(C)C              GI50  1.64 µM
2              CC(C)Cn1cnc2c(N)nc3ccccc3c21              GI50  51.8 µM

Here is the next item to consider.
## Input Complete the entry with GI50 for `C=CCn1c(SCC(=O)Nc2ccc(C(=O)/C=C/c3cc(OC)c(OC)c(OC)c3)cc2)nnc1-c1cc(OC)c(OC)c(OC)c1`
## Output 3.42 µM

====

- Tested on: U251 CNS
One label from this list, please: active, inactive

Consider the following illustrative entries.
molecule	assayedTarget	classAssignment
COc1cccc2c1C(=O)c1c(O)c3c(c(O)c1C2=O)C[C@@](O)(/C(C)=N/NC(=O)c1cccc([N+](=O)[O-])c1)C[C@@H]3OC1CC(N)C(O)C(C)O1 (some centres not stated)	U251 CNS	active
O=C(Nc1ccccc1/C=C/c1n[nH]c2ccccc12)c1ccccc1	U251 CNS	inactive
Clc1cccc(-c2cc(-c3ccc4c(c3)OCCO4)[nH]n2)c1	U251 CNS	inactive

## Input Which result was noted for this molecule in the test: `Cc1cc2c(cc1Cl)SC(=Nc1ccc(Cl)cc1)N(S(=O)(=O)c1ccc(Br)s1)S2(=O)=O`
## Output inactive

## Input Which result was noted for this molecule in the test: `COc1ccc2c(c1)c(-c1ccc(-c3cn(C)c4ccc(OC)cc34)s1)cn2C`
## Output inactive

## Input Which result was noted for this molecule in the test: `COc1ccc(-c2cc(=O)c3c(C)ccnc3[nH]2)cc1`
## Output inactive

## Input Which result was noted for this molecule in the test: `CC[O-].CC[O-].[O-]c1ccccc1C=NC12CC3CC(CC(C3)C1)C2.[O-]c1ccccc1C=NC12CC3CC(CC(C3)C1)C2.[Ti+4]`
## Output inactive

## Input Which result was noted for this molecule in the test: `CN1CCN(c2ccc3nc(-c4[nH]ncc4Nc4ncnc5[nH]ccc45)[nH]c3c2)CC1`
## Output active

## Input Which result was noted for this molecule in the test: `Cc1cc(NC(=O)NCCCOc2ccc(N3C(N)=NC(N)=NC3(C)C)cc2Cl)ccc1S(=O)(=O)F`
## Output inactive

## Input Which result was noted for this molecule in the test: `CCCN1CCC(Oc2cc(Nc3nc(Nc4cccc(F)c4C(N)=O)c4cc[nH]c4n3)c(OC)cc2Cl)CC1`
## Output inactive

## Input Which result was noted for this molecule in the test: `N#CSc1c[nH]c2ccc(/C=C/C(=O)/C=C(O)/C=C/c3ccc4[nH]cc(SC#N)c4c3)cc12`
## Output inactive

## Input Which result was noted for this molecule in the test: `COc1ccccc1C1C(C#N)=C(N)SC(N)=C1C#N`
## Output inactive
